# system_name: T1, full-length mature cynomolgus EMR2 (residues Q24-N816) with N-terminal aspartic acid/lysine epitope tag, … (cynomolgus monkey (Macaca fascicularis), UniProt A0A2K5WL23 21-816); note: test concentration or dose not given here
# T1 sequence: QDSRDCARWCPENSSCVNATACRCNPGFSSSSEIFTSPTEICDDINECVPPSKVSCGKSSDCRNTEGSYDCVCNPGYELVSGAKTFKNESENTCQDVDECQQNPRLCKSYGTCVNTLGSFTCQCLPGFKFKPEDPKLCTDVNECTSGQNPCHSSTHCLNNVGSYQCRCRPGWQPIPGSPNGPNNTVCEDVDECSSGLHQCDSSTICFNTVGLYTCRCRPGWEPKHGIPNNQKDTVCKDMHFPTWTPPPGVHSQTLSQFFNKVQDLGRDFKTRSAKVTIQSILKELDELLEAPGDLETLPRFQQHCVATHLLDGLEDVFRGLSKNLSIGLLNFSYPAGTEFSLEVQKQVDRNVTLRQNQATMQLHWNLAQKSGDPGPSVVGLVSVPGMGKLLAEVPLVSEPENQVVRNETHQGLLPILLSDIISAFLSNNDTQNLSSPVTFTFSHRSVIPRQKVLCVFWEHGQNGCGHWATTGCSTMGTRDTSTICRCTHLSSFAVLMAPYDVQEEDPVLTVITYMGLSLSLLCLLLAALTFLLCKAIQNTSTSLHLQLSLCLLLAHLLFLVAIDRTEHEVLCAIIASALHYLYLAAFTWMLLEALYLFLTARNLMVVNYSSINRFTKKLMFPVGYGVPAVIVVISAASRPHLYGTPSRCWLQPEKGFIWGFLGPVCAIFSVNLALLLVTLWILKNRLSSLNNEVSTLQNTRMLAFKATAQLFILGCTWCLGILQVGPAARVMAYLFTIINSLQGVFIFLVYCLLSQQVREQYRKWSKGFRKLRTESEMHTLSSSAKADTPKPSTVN
# method: cell-based or functional assay
Give % live, FAB-saporin killing assay for every item shown.
Response body: numeric value in %, unit text excluded.

QUERY: Specify measured % live, FAB-saporin killing assay for SC93.239 (antibody, V domains shown, Murine hybridoma antibody with a kappa light chain; also called clone SC93.239; SC93.239 (Bin A)) VH: LVQLQQSGVELARPGASVKLSCKASGYIFTSYGISWVKQRTGQGLEWIGNIYPRTGNTYYNEKFKDKATLTADKSSNTAYMELRSLTSEDSAVYFCARGTHYDPLDYWGQGTTLTVSS VL: ENVLTQSPAIMSASPGEKVTMTCRASSSVSSSDLHWYQQKSGASPKLWIYSTSNLASGVPARFSGSGSGASCSLTISSVEAEDAATYYCHQYSGYPWTFGGGTKLEIK .
RESULT: 16.7

QUERY: Provide measured % live, FAB-saporin killing assay value, entry: SC93.266 (antibody, V domains shown, Murine hybridoma antibody) VH: EVKLEESGGGLVQPGGSMKLSCAASGFTFSDAWMDWVRQSPEKGLEWVAEIRSKVNNHETYYAESVKGRFTISRDDSKSSVYLQMNSLRAEDTGIYYCIRNDYFDYWGQGTTLTVSS VL: DIQMTQTTSSLSASLGDRVTISCSASQGIRNYLNWYQQKPDGTVKLLIYYTSRLHSGVPSRFSGSGSGTDYSLTISNLEPEDIATYYCQQYGKLPYTFGGGTKLEIN
RESULT: 12.7
